system: A498 renal; test: NCI tumour cell line growth inhibition, 48 h
measured-parameter: TGI

>>> print(df.to_string())
                                   molecule         tgt       val
0  COc1cccc(/C=N/[N-]C(N)=O)c1[O-].[Ni+2].[OH3+]  A498 renal   3.15 µM
1  CCOC(=O)/C(C#N)=C1\SS/C(=C(/C#N)C(=O)OCC)S1  A498 renal  > 100 µM
2        O=C(/C=C/C(Cl)(Cl)Cl)Nc1ccc(Cl)cc1  A498 renal   28.8 µM
3  C/C(=N\NC(=S)NC(CCC(=O)O)C(=O)O)c1cnccn1 (centres undefined)  A498 renal  > 100 µM
